- target.desc: T1, serum purified human Complement Factor D (human, UniProt P00746 26-253)
- T1 construct: Serum purified protein flowed over the captured antibodies; also called CFD; human CFD
- method.summary: SPR Biacore, antibody on protein A chip, single cycle kinetics, 25 C;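 also: antibodies captured to roughly 70 RU on the protein A surface in HBS-EP+ running buffer, with kinetic constants derived by BIAevaluation fitting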
value.type: pKd
# pKd: negative log10 of molar concentration; output just the value

Task item: I am curious: what pKd value has been reported for 34I54I59D / 32W60W101V (antibody, V domains shown, KCD119 TAF variant; full antibody captured on protein A) VH: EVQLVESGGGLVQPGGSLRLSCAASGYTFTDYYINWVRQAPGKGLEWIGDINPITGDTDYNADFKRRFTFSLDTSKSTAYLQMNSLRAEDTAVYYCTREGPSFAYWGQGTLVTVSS VL: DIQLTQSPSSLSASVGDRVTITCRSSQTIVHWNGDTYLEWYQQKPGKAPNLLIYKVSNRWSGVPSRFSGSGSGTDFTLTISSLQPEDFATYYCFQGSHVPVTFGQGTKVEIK ?
Reply: 10.68

Task item: Give the measured pKd of 28I31S54V59D / 101V (antibody, V domains shown, KCD119 TAF variant; full antibody captured on protein A) VH: EVQLVESGGGLVQPGGSLRLSCAASGYIFTSYYMNWVRQAPGKGLEWIGDINPVTGDTDYNADFKRRFTFSLDTSKSTAYLQMNSLRAEDTAVYYCTREGPSFAYWGQGTLVTVSS VL: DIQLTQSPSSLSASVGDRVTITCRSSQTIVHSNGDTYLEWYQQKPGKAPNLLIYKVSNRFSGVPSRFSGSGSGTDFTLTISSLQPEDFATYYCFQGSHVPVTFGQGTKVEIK .
Reply: 10.75

Task item: Returns the measured pKd for the input binder. Input: 31S54V59D / 32W60W101V (antibody, V domains shown, KCD119 TAF variant; full antibody captured on protein A) VH: EVQLVESGGGLVQPGGSLRLSCAASGYTFTSYYMNWVRQAPGKGLEWIGDINPVTGDTDYNADFKRRFTFSLDTSKSTAYLQMNSLRAEDTAVYYCTREGPSFAYWGQGTLVTVSS VL: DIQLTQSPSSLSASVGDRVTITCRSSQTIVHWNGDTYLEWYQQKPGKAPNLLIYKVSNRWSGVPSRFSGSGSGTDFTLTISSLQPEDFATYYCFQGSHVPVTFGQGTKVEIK
Reply: 10.80

Task item: // query pKd value for entry 28H31S54V59D / 101V (antibody, V domains shown, KCD119 TAF variant; full antibody captured on protein A) VH: EVQLVESGGGLVQPGGSLRLSCAASGYHFTSYYMNWVRQAPGKGLEWIGDINPVTGDTDYNADFKRRFTFSLDTSKSTAYLQMNSLRAEDTAVYYCTREGPSFAYWGQGTLVTVSS VL: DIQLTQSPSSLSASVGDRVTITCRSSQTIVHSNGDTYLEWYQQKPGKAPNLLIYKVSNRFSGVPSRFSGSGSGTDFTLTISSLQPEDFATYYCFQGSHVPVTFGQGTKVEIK
Reply: 10.60

Task item: What value of pKd has been recorded for this entry: 28Q31S54V59D / 101V (antibody, V domains shown, KCD119 TAF variant; full antibody captured on protein A) VH: EVQLVESGGGLVQPGGSLRLSCAASGYQFTSYYMNWVRQAPGKGLEWIGDINPVTGDTDYNADFKRRFTFSLDTSKSTAYLQMNSLRAEDTAVYYCTREGPSFAYWGQGTLVTVSS VL: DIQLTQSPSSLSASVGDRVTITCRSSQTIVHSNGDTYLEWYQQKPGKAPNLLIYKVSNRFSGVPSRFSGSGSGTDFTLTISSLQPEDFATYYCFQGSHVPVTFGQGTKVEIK
Reply: 10.64
